Recorded values, source patent US20260078103A1.

system: T47D cells expressing mutant PI3Ka (H1047R); test: In vitro cell proliferation, T47D cells (CellTiter-Glo); assay type: cell-based; settings: inhibition of proliferation, 72 hours, read-out: Avg T-47D EC50
Let's look at some molecules and their measured EC50.

Look over these answered cases.
| molecule | readoutValue |
| --- | --- |
| C[C@@H](Nc1cccc(F)c1C(=O)O)c1cc(F)cc2c(=O)n(C)c(-c3cnc(C(F)(F)F)nc3)cc12 [Example 372] | 2 to 15 µM |
| Cc1cc([C@@H](C)Nc2ccc(F)nc2C(=O)O)c2cc(-c3cnc(C(F)(F)F)nc3)n(C)c(=O)c2c1 [Example 387] | 0.001 to 0.5 µM |
| Cc1cc(C(C)Nc2ccccc2C(=O)O)c2cc(N3CCC(c4ccccc4)C3)n(C)c(=O)c2c1 (mixture of isomers) [Example 60] | 0.5 to 2 µM |

Query: EC50; subject: Cc1cc(C(C)Nc2ccc(Cl)nc2C(=O)O)c2cc(N3CCC(C)(C)CC3)n(C)c(=O)c2c1 (single isomer, unassigned) [Example 3]
0.001 to 0.5 µM

---

system: phosphorylation of AKT (pAKT) in T47D cells expressing mutant PI3Ka (H1047R); assay: In vitro cell pAKT (Ser473) HTRF, T47D cells; assay type: cell-based; conditions: cellular pAKT, T47D cells, mutant PI3Ka (H1047R), 6 hours; read-out: Avg T-47D IC50
valueType: IC50

Look over these answered cases.
| compound | readoutValue |
| --- | --- |
| Cc1cc([C@@H](C)Nc2ccccc2C(=O)O)c2cc(N3CC4CC3CN4CC(F)(F)F)n(C)c(=O)c2c1 (single isomer, unassigned) [Example 224] | 1 to 500 nM |
| Cc1cc([C@@H](C)Nc2cccc(F)c2C(=O)O)c2cc(N3CCc4c(cnn4C)C3)n(C)c(=O)c2c1 [Example 439] | 500 to 2000 nM |

Query: IC50; subject: COCCC(=O)N1CCN(c2cc3c(C(C)Nc4ccccc4C(=O)O)cc(C)cc3c(=O)n2C)CC1 (single isomer, unassigned) [Example 112]
> 15000 nM

Query: IC50; subject: Cc1cc(C(C)Nc2ccccc2C(=O)O)c2cc(N3C[C@@H]4[C@@H](C#N)[C@@H]4C3)n(C)c(=O)c2c1 (stereo partly drawn) [Example 16]
> 15000 nM

Query: IC50; subject: Cc1nc(C)c(-c2ncc(-c3cc4c(C(C)Nc5ccccc5C(=O)O)cc(F)cc4c(=O)n3C)cc2F)cc1F (stereo not drawn) [Example 471]
1 to 500 nM

Query: IC50; subject: C[C@@H](Nc1ccccc1C(=O)O)c1cc(F)cc2c(=O)n(C)c(C3CC3(F)F)cc12 (single isomer, unassigned) [Example 481]
500 to 2000 nM

Query: IC50; subject: COC1(C)CN(c2cc3c(C(C)Nc4ccccc4C(=O)O)cc(C)cc3c(=O)n2C)C1 (single isomer, unassigned) [Example 213]
1 to 500 nM

Query: IC50; subject: Cc1cc([C@@H](C)Nc2cccc(F)c2C(=O)O)c2cc(-c3cnc(C(F)(F)F)nc3)n(C)c(=O)c2c1 [Example 371]
500 to 2000 nM

Query: IC50; subject: Cc1cc(C(C)Nc2ccccc2C(=O)O)c2cc(N3CCC4(CCOCC4)CC3)n(C)c(=O)c2c1 (single isomer, unassigned) [Example 167]
1 to 500 nM

Query: IC50; subject: Cc1cc([C@@H](C)Nc2ccccc2C(=O)O)c2cc(N3CCn4c(nnc4C(F)(F)F)C3)n(C)c(=O)c2c1 [Example 435]
2000 to 15000 nM

Query: IC50; subject: Cc1cc(C(C)Nc2ccccc2C(=O)O)c2cc(N3CCN4CC(F)(F)CC4C3)n(C)c(=O)c2c1 (single isomer, unassigned) [Example 121]
1 to 500 nM

Query: IC50; subject: Cc1cc(C(C)Nc2ccccc2C(=O)O)c2cc(N3C[C@@H]4[C@@H](C#N)[C@@H]4C3)n(C)c(=O)c2c1 (stereo partly drawn) [Example 15]
2000 to 15000 nM
